experiment: Binding affinity for FK506 binding protein; conditions: read-out: Ki app
measured_metric: pKi
One number for each entry, as −log10 of the molar value.

Below, 2 compounds whose answers are already recorded.
compound | result
COCC(=O)[C@H](C)C[C@H](C)\C=C/C=C/C=C(\C)[C@H](C[C@@H]1CC[C@@H](C)[C@](O)(C(=O)C(=O)N2CCCC[C@H]2C(=O)OC(C)c2ccccc2)O1)OC (stereo partly drawn) | 7.39
CCC(C)(C)C(=O)C(=O)N1CCCC[C@H]1C(=O)O[C@@H](CC(=O)[C@H](C)/C=C(\C)[C@@H](O)[C@@H](OC)C(=O)[C@H](C)C[C@H](C)\C=C/C=C/C=C(\C)[C@H](C[C@@H]1CC[C@@H](C)C(=O)O1)OC)[C@H](C)C[C@@H]1CC[C@@H](O)[C@H](OC)C1 | 7.70

Then there is this compound:
Input: Name the recorded pKi for `COC(=O)[C@@H]1CCCCN1C(=O)C(=O)[C@]1(O)O[C@H](C[C@H](OC)/C(C)=C/C=C/C=C\[C@@H](C)C[C@@H](C)C(=O)[C@H](OC)[C@H](O)/C(C)=C/[C@@H](C)C(=O)/C=C/[C@H](C)C[C@@H]2CC[C@@H](O)[C@H](OC)C2)CC[C@H]1C` .
Output: 7.54

* * *

test: Binding affinity for FK506 binding protein; conditions: read-out: Ki app
measured_metric: Ki (nM)
One number for each entry, in nM.

smiles_notation | Ki, nM
COCC(=O)[C@H](C)C[C@H](C)\C=C/C=C/C=C(\C)[C@H](C[C@@H]1CC[C@@H](C)[C@](O)(C(=O)C(=O)N2CCCC[C@H]2C(=O)NCCCc2ccccc2)O1)OC | 32
COCC(=O)[C@H](C)C[C@H](C)\C=C/C=C/C=C(\C)[C@H](C[C@@H]1CC[C@@H](C)[C@](O)(C(=O)C(=O)N2CCCC[C@H]2C(=O)OC(C)C)O1)OC | 51
COCC(=O)[C@H](C)C[C@H](C)\C=C/C=C/C=C(\C)[C@H](C[C@@H]1CC[C@@H](C)[C@](O)(C(=O)C(=O)N2CCCC[C@H]2C(=O)O[C@@H](CC(=O)[C@H](C)/C=C(\C)C=O)[C@H](C)C[C@@H]2CC[C@@H](O)[C@H](OC)C2)O1)OC | 4

Would you mind listing Ki for each of the following molecules?
1. COCC(=O)[C@H](C)C[C@H](C)\C=C/C=C/C=C(\C)[C@H](C[C@@H]1CC[C@@H](C)[C@](O)(C(=O)C(=O)N2CCCC[C@H]2C(=O)OC)O1)OC
2. COCC(=O)[C@H](C)C[C@H](C)\C=C/C=C/C=C(\C)[C@H](C[C@@H]1CC[C@@H](C)[C@](O)(C(=O)C(=O)N2CCCC[C@H]2C(=O)NCc2ccccc2)O1)OC
3. CO[C@H]1C[C@@H]2CC[C@@H](C)[C@@](O)(O2)C(=O)C(=O)N2CCCC[C@H]2C(=O)O[C@H]([C@H](C)C[C@@H]2CC[C@@H](O)[C@H](OC)C2)CC(=O)[C@H](C)/C=C(\C)[C@@H](O)[C@@H](OC)C(=O)[C@H](C)C[C@H](C)/C=C/C=C/C=C/1C

Output:
1: 12; 2: 110; 3: 0.5

Quick one: give me Ki for each item below, same order please.
1. COCC(=O)[C@H](C)C[C@H](C)\C=C/C=C/C=C(\C)[C@H](C[C@@H]1CC[C@@H](C)[C@](O)(C(=O)C(=O)N2CCCC[C@H]2C(=O)O)O1)OC
2. COCC(=O)[C@H](C)C[C@H](C)\C=C/C=C/C=C(\C)[C@H](C[C@@H]1CC[C@@H](C)[C@](O)(C(=O)C(=O)N2CCCC[C@H]2C(=O)OCCCc2ccc(OC)c(OC)c2)O1)OC
3. COCC(=O)[C@H](C)C[C@H](C)\C=C/C=C/C=C(\C)[C@H](C[C@@H]1CC[C@@H](C)[C@](O)(C(=O)C(=O)N2CCCC[C@H]2C(=O)OCc2ccccc2)O1)OC
4. COCC(=O)[C@H](C)C[C@H](C)\C=C/C=C/C=C(\C)[C@H](C[C@@H]1CC[C@@H](C)[C@](O)(C(=O)C(=O)N2CCCC[C@H]2C(=O)OC/C=C/c2ccccc2)O1)OC

Output:
[500, 43, 15, 31]

The measurements presented in this section are drawn from ChEMBL document CHEMBL1152083.
